The origin of these recorded values is ChEMBL document CHEMBL3872232.

experiment: Safety index, ratio of compound IC50 to colchicine IC50 for human mammary epithelial cells; assay type: ADME, cell-based, Epithelial cell; details: read-out: Ratio IC50
outcomeMeasure: selectivity ratio
The response must contain the number and no unit.

The cases that follow already have their selectivity ratio on record.
INSERT INTO measurements (linenotation, value) VALUES
  ('CO[C@@H]1C(=O)N(C/C(C#N)=C/c2ccccc2)[C@@H]1c1ccc(F)cc1', 10),
  ('CCOC(=O)/C(=C/c1ccccc1)CN1C(=O)[C@@H](OC)[C@H]1c1ccccc1Br', 10);

Consider now this further compound.
# compound CO[C@@H]1C(=O)N(C/C(C#N)=C/c2ccccc2)[C@@H]1c1ccc(C)cc1 ; its selectivity ratio = 10
